pIC50: −log10 of the molar value.
// cross-source set; read-out = pIC50; system = Serine/threonine-protein kinase pim-3 (Homo sapiens, UniProt Q86V86)
Observed Property: pIC50

> print(dat)
                            compound.smiles  observed.property  qualifier.symbol  quantitative.readout
1  Cc1c2c(nn1C)C(=O)N(C)CCOc1c(cnn1C)-c1ccc3[nH]nc(c3c1)/C=C/2              pIC50                 =                  8.44
2  COc1ccc2c(c1CN1CCN[C@@H](C)C1)O/C(=C\c1n[nH]c3ncccc13)C2=O              pIC50                 =                  8.85
3  CCc1cc(-c2cnc3ccc(NC45CCC(C(C)(C)O)(CC4)CC5)nn23)n[nH]1              pIC50                 >                  8.00
4  C[C@@H]1C[C@H](N)CN(c2ccncc2NC(=O)c2nc3cc(N4CCN(C)CC4)ccc3cc2N)C1              pIC50                 ≥                  7.00

====

// cross-source set; read-out = log10(IC50); system = Serine/threonine-protein kinase pim-3 (Homo sapiens)
Observed Property: log10(IC50) (log10 of the value in nM)

> print(dat)
                                    compound  quantitative.readout
 1  C[C@H]1C[C@@H](c2ccncc2NC(=O)c2ccc(F)c(-c3c(F)cc(O[C@H]4CCCOC4)cc3F)n2)C[C@@H](N)[C@@H]1O                 -0.24
 2  C[C@H]1C[C@@H](c2ccncc2NC(=O)c2ccc(F)c(-c3c(F)cc4c(c3F)OCC4)n2)C[C@@H](N)[C@@H]1O                 -0.24
 3  CS(=O)(=O)c1ccc(-c2ccc(N)c(-c3cc4c(N5CCC[C@H](N)C5)ccnc4cn3)n2)cc1                  0.85
 4  C[C@@H]1C[C@H](N)C[C@H](c2ccncc2NC(=O)c2ccc(F)c(-c3c(F)cc(C4CCS(=O)(=O)CC4)cc3F)n2)C1                 -0.17
 5  C[C@H]1C[C@@H](c2ccncc2NC(=O)c2ccc(F)c(-c3c(F)cc(OCC4(C#N)CCOCC4)cc3F)n2)C[C@@H](N)[C@@H]1O                  0.12
 6  N[C@@H]1CN(c2ccncc2NC(=O)c2csc(-c3c(F)cccc3F)n2)CC[C@H]1O                  0.60
 7  N[C@@H]1CN(c2ccnc3ccc(-c4cccc(-c5c(F)cccc5F)n4)cc23)CC[C@H]1F                  1.62
 8  C[C@H]1C[C@@H](c2ccncc2NC(=O)c2ccc(F)c(-c3c(F)cc(OCC4CCOCC4)cc3F)n2)C[C@@H](N)[C@@H]1O                 -0.08
 9  CC(C)Oc1cc(F)c(-c2nc(C(=O)Nc3cnccc3N3C[C@@H](N)[C@H](O)[C@@H](C)C3)ccc2F)c(F)c1                 -1.00
10  COc1ccc2c(c1C(C)CN1CCNCC1)O/C(=C\c1n[nH]c3ncccc13)C2=O (centres unmarked)                  0.81
11  CC1CCN(c2ccncc2NC(=O)c2csc(-c3c(F)cccc3F)n2)CC1N (centres unmarked)                  0.70

====

// cross-source set; read-out = pIC50; system = Serine/threonine-protein kinase pim-3 (Homo sapiens)
pIC50: −log10 of the molar value.
Observed Property: pIC50

> print(dat)
                            compound.smiles  observed.property  qualifier.symbol  quantitative.readout
1  C[C@@H]1C[C@H](N)C[C@H](c2ccncc2NC(=O)c2ccc(F)c(-c3c(F)cc(N4CCOCC4)cc3F)n2)C1              pIC50                 =                  9.02
2  COc1ccc2c(c1CN1CCNC[C@@H]1C)O/C(=C\c1n[nH]c3ncccc13)C2=O              pIC50                 =                  8.08
3  C[C@H]1C[C@@H](c2ccncc2NC(=O)c2ccc(F)c(-c3c(F)cc(CC(C)(C)O)cc3F)n2)C[C@@H](N)[C@@H]1O              pIC50                 =                  8.87
4  CCc1ccc2cc(N)c(C(=O)Nc3cnc4c(c3N3CCC[C@H](N)C3)CCO4)nc2c1              pIC50                 ≥                  7.00
5  N[C@H]1CCC[C@@H](c2ccncc2NC(=O)c2ccc(F)c(-c3c(F)cc(COC4CCOCC4)cc3F)n2)C1              pIC50                 =                  8.28

====

pIC50: −log10 of the molar value.
// cross-source set; read-out = pIC50; system = Serine/threonine-protein kinase pim-3 (Homo sapiens)
Observed Property: pIC50

> print(dat)
                            compound.smiles                           measured.target  quantitative.readout
1  N[C@H]1CCCN(c2ccnc3cnc(-c4cccc(-c5nccs5)n4)cc23)C1  Serine/threonine-protein kinase pim-3 (Homo sapiens)                  8.15
2  C[C@@H]1C[C@H](O)C[C@H](c2ccncc2NC(=O)c2nc(-c3c(F)cccc3F)sc2N)C1  Serine/threonine-protein kinase pim-3 (Homo sapiens)                  8.40
3  C[C@@H]1C[C@H](N)C[C@H](c2ccncc2NC(=O)c2ccc(F)c(-c3c(F)cc(O[C@H]4CCCOC4)cc3F)n2)C1  Serine/threonine-protein kinase pim-3 (Homo sapiens)                  9.62
4  N[C@@H]1C[C@@H](C(F)(F)F)CN(c2ccncc2NC(=O)c2csc(-c3c(F)cccc3F)n2)C1  Serine/threonine-protein kinase pim-3 (Homo sapiens)                  7.62

====

// cross-source set; read-out = IC50; system = Serine/threonine-protein kinase pim-3 (Homo sapiens, UniProt Q86V86)
Observed Property: IC50

> print(dat)
                                   compound  observed.property        result
1  Nc1cc2ccc(C(O)c3ccccc3)cc2nc1C(=O)Nc1cnccc1N1CCC[C@H](N)C1 (some centres unmarked)               IC50      ≤ 100 nM
2  COC(=O)N[C@@H]1[C@H](N)CN(c2ccncc2NC(=O)c2nc3cc(N4CCN(C)CC4)ccc3cc2N)C[C@@H]1C               IC50      ≤ 100 nM
3  CN1CCOc2c1c(N1CCC(CN)CC1)nn1c(-c3cccc(OC(F)(F)F)c3)nnc21               IC50      < 100 nM
4  CCc1cc(-c2cnc3ccc(NC45CCC(O)(CC4)C5)nn23)c[nH]1               IC50  10 to 100 nM
5  CCc1ccc2cc(N)c(C(=O)Nc3cnc(OC)cc3N3CCC[C@H](N)C3)nc2c1               IC50      ≤ 100 nM
6  C[C@H]1CN(c2ccncc2NC(=O)c2nc3cc(N4CCOCC4)ccc3cc2N)C[C@@H](N)[C@@H]1O               IC50      ≤ 100 nM
7  CCc1ccc2cc(N)c(C(=O)Nc3cnccc3N3C[C@@H](N)[C@@H](n4ccnn4)[C@@H](C)C3)nc2c1               IC50      ≤ 100 nM
8  CC(F)c1ccc2cc(N)c(C(=O)Nc3cnccc3N3CCC[C@H](N)C3)nc2c1 (some centres unmarked)               IC50      ≤ 100 nM

====

// cross-source set; read-out = pIC50; system = Serine/threonine-protein kinase pim-3 (Homo sapiens, UniProt Q86V86)
pIC50: −log10 of the molar value.
Observed Property: pIC50

> print(dat)
                                   compound  qualifier.symbol  quantitative.readout
1  Nc1cc2ccc(C3CCOCC3)cc2nc1C(=O)Nc1cnccc1N1CCC[C@H](N)C1                 ≥                  7.00
2  COc1ccc2c(c1CC1CCNCC1)O/C(=C\c1n[nH]c3nc(C)ccc13)C2=O                 =                  9.15
3  N#CCc1ccc2cc(N)c(C(=O)Nc3cnccc3N3CCC[C@H](N)C3)nc2c1                 ≥                  7.00
4  Nc1cc2ccc(N3CCOCC3)cc2nc1C(=O)Nc1cnccc1N1C[C@@H](N)C[C@@H](C(F)(F)F)C1                 ≥                  7.00
5  N#CC1(c2cc(F)c(-c3nc(C(=O)Nc4cnccc4[C@@H]4CCC[C@H](N)C4)ccc3F)c(F)c2)CCOCC1                 =                  7.71
6  NC1CC(C(F)(F)F)CN(c2ccncc2NC(=O)c2csc(C3CCCCC3)n2)C1 (stereo not shown)                 =                  7.70
7  N#Cc1cccc(F)c1-c1ccc2cc(N)c(C(=O)Nc3cnccc3N3CCC[C@H](N)C3)nc2c1                 ≥                  7.00
